Tested on: MDA-MB-231
Test: Cytotoxicity against human MDA-MB-231 cells assessed as normal nuclei at 1 uM by DAPI staining based fluorescence microscopic analysis (reference value: 85.71 to 95.83%)
Type: functional
Would you mind telling me the reported Activity of each entry?
Numbers only, in %.

Go through the items and report each one's Activity.
1. O=C1c2cccc(O)c2C(=O)c2c1[nH]c1ccccc21
2. CN(C1=CC(=O)c2ccccc2C1=O)c1ccccc1

74.07
72.22

For each of the molecules below, note its Activity.
1. COc1cccc(NC2=CC(=O)c3ccccc3C2=O)c1
2. O=C1C=C(Nc2cccc3ccccc23)C(=O)c2ccccc21

1. 63.89
2. 88.1

---

Consider the following molecules; for each one, report its pIC50.
Test system: HEK-293T
Experiment: Cytotoxicity against human HEK293T cells assessed as reduction in cell viability incubated for 48 hrs by MTT assay
Assay type: cell-based
One number for each entry, as −log10 of the molar value.

INSERT INTO measurements (entry_smiles, recorded_measurement) VALUES
  ('O=C1C=C(Nc2ccc3c(c2)OCO3)C(=O)c2ccccc21', 4.99),
  ('COc1ccc(NC2=CC(=O)c3ccccc3C2=O)cc1', 5.26),
  ('O=C1C=C(Nc2ccc(Cl)cc2)C(=O)c2ccccc21', 5.31),
  ('O=C1C=C(Nc2ccc(F)cc2)C(=O)c2ccccc21', 5.28),
  ('COc1cc2[nH]c3c(c2cc1OC)C(=O)c1ccccc1C3=O', 4.99),
  ('O=C1C=C(Nc2nccs2)C(=O)c2ccccc21', 5.12);

For each of the items listed, what is its pIC50?
1. COc1ccc2[nH]c3c(c2c1)C(=O)c1ccccc1C3=O
2. O=C1C=C(NCCCN2CCOCC2)C(=O)c2ccccc21
3. COc1cccc(NC2=CC(=O)c3ccccc3C2=O)c1
4. Cc1cc2[nH]c3c(c2cc1C)C(=O)c1ccccc1C3=O
5. O=C1C=C(Nc2cccc(Cl)c2)C(=O)c2ccccc21

[4.98, 5.14, 5.35, 5.15, 5.28]

Batch lookup, pIC50 per entry.
1. COc1cc2[nH]c3c(c2c(OC)c1OC)C(=O)c1ccccc1C3=O
2. O=C1c2cccc(O)c2C(=O)c2c1[nH]c1ccccc21
3. Cc1ccc2[nH]c3c(c2c1)C(=O)c1ccccc1C3=O

1: 4.98; 2: 5.40; 3: 5.10

---

Would you mind telling me the reported IC50 of each entry?
System: MCF7
Experiment: Cytotoxicity against human MCF7 cells assessed as reduction in cell viability incubated for 48 hrs by MTT assay
Format: functional, cell-based
Conditions: Homo sapiens, MCF7, 48 h; read-out: IC50
Numbers only, in µM.

INSERT INTO assay_data (entry_smiles, measured_target, recorded_measurement) VALUES
  ('O=C1C=C(Nc2ccc(F)c(F)c2)C(=O)c2ccccc21', 'MCF7', 7.2),
  ('COc1cc(NC2=CC(=O)c3ccccc3C2=O)cc(OC)c1OC', 'MCF7', 7);

Turning now to a further record.
State its IC50: O=C1C=C(Nc2cnccn2)C(=O)c2ccccc21
7.2
